tested on: M14 melanoma; test: NCI-60 one-dose screen, 48 h (100 = growth as untreated, 0 = no growth, -100 = all killed); conditions: 10 µM unless noted
Compounds without any hit were thinned out: in the full panel of roughly 83,000, 20% have a hit. Active and inactive are the calls of the source. How the source made its calls: active means growth percent below 10; inactive means the rest.
Please provide measured growth for the entries that follow.

Example entries and their recorded answers appear below.
{"molecule": "CN1C(=O)/C(=C/c2ccc(C(=O)Nc3ncc(Cc4cc(Cl)ccc4Cl)s3)cc2)SC1=S", "growth": "46.5% (inactive)"}
{"molecule": "FC(F)(F)c1[nH]ncc1-c1nc2ccc3[nH]ncc3c2c2c1CCCC2", "growth": "12.5% (inactive)"}
{"molecule": "CCN(CC)CCn1c2ccc(OC)cc2c2sc3cc(O)ccc3c(=O)c21", "growth": "31.2% (inactive)"}
{"molecule": "C#CCOc1cccc(Nc2ncnc3c2ncn3C2CCN(C(=O)CCl)C2)c1 (stereo not given)", "growth": "-48.6% (active)"}

Need growth of C=CN(C(=O)N1CCN(c2cc3c(cc2F)c(=O)c(C(=O)O)cn3C2CC2)CC1)c1nc(-c2ccc(Cl)cc2)cs1 , thanks.
60.2% (inactive)
